Recorded IC50 values for a group of compounds are listed next.
- System: SHP-77 human SCLC cell line
- experimentSummary: In vitro tumor cell growth inhibition, cell count after 3 days
- Type: cell-based
- recordedConditions: Homo sapiens, SHP77, 72 h; SHP-77 SCLC cells, 3 days, 35° C.; read-out: IC50
- Excerpt: Cells were counted after 3 days in culture and at a cell density of no more than 80%. In vitro inhibition of small cell lung cancer (SCLC) cell lines by the compound of formula 1A was done with standard human tumor cells (established cell lines available from the American Type Tissue culture collection). […] Cells were counted after 3 days in culture and at a cell density of no more than 80%. […]
Kindly provide the numeric value in µM only, without the unit symbol.

# compound, IC50 (µM)
records = [
    ("CN1CCN(C(=S)NN=C(c2ccccn2)c2ccccn2)CC1 [Formula 1B]", 0.173),
]

Next up:
query: For CN1CCN(C(=S)NN=C(c2ccccc2)c2ccnnc2)CC1 [Formula 1A] , what is its reported IC50?
result: 10

Data origin: patent US8466151B2
